Here, each record is paired with measured pKi data.
System under test: human delta opioid receptors (Homo sapiens, UniProt P41143)
Construct: membranes
Sequence (P41143 whole entry): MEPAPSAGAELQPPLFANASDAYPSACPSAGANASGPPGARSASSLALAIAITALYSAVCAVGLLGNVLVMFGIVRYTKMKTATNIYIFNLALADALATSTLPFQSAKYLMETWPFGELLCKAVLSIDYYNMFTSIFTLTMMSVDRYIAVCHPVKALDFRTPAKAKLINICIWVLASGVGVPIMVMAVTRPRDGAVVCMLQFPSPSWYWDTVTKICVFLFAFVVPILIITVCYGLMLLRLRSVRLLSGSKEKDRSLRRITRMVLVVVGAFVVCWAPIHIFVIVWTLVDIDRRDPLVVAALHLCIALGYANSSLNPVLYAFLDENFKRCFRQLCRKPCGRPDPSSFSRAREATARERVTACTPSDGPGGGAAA
Test details: radioligand binding assay, cloned human delta opioid receptor, [3H]-DADLE
Please express pKi as -log10 of the molar concentration.

- Cpd smiles: "COc1ccc(N2CCN(C(=O)c3[nH]c4c(c3C)C[C@H]3[C@H]5Cc6ccc(OC)c7c6[C@@]3(CCN5C)[C@H]4O7)CC2)c(OC)c1"
  System under test: "human delta opioid receptors (Homo sapiens, UniProt P41143)"
  Val: 9.22

Moving on to the next compound.
Enquiry: Recorded pKi for COc1ccc2c3c1O[C@H]1c4[nH]c(C(=O)N5CCN(c6ccc(C)cc6C)CC5)c(C)c4C[C@H]4[C@@H](C2)N(C)CC[C@]314 with human delta opioid receptors (Homo sapiens, UniProt P41143), please?
Return: 9.00

Recorded values, source patent US20040067959A1.
